Just for reference, the supplement of paper PMC11061612 is where these values come from.

Test system: BC-1 (B-Cell Non-Hodgkin's Lymphoma)
Assay: combination Emax (second highest fraction inhibited in the dose matrix, 72 h); higher = more inhibition; extreme values may be limits of the assay
measured_parameter: combination Emax
Numbers only.

Provide combination Emax for all items below, preserving their order.
1. CC1(C)CCC(CN2CCN(c3ccc(C(=O)NS(=O)(=O)c4ccc(NCC5CCOCC5)c([N+](=O)[O-])c4)c(Oc4cnc5[nH]ccc5c4)c3)CC2)=C(c2ccc(Cl)cc2)C1 [Venetoclax] + C[C@@H]1COCCN1C2=NC(=NC(=C2)C3(CC3)[S@](=N)(=O)C)C4=C5C=CNC5=NC=C4 [AZD6738] (first compound max 1 µM, 7x7, partner max 10 µM)
2. O=C(c1cc(Cc2n[nH]c(=O)c3ccccc23)ccc1F)N1CCN(C(=O)C2CC2)CC1 [Olaparib] + CC1(C)CCC(CN2CCN(c3ccc(C(=O)NS(=O)(=O)c4ccc(NCC5CCOCC5)c([N+](=O)[O-])c4)c(Oc4cnc5[nH]ccc5c4)c3)CC2)=C(c2ccc(Cl)cc2)C1 [Venetoclax] (first compound max 10 µM, 7x7, partner max 1 µM)
3. CC(=O)c1c(C)c2cnc(Nc3ccc(N4CCNCC4)cn3)nc2n(C2CCCC2)c1=O [Palbociclib] + CC1(C)CCC(CN2CCN(c3ccc(C(=O)NS(=O)(=O)c4ccc(NCC5CCOCC5)c([N+](=O)[O-])c4)c(Oc4cnc5[nH]ccc5c4)c3)CC2)=C(c2ccc(Cl)cc2)C1 [Venetoclax] (first compound max 10 µM, 7x7, partner max 1 µM)
4. Cc1cc2ncnn2cc1Nc1ncc2c(n1)n(C1CCOCC1)c(=O)n2C [AZD7648] + CCN(CCO)CCCOc1ccc2c(Nc3cc(CC(=O)Nc4cccc(F)c4)[nH]n3)ncnc2c1 [AZD2811] (first compound max 10 µM, 7x7, partner max 1 µM)

-- reply
1: 0.933; 2: 0.252; 3: 0.917; 4: 0.871

Would you be so kind as to report combination Emax for each listed record?
1. Cc1cc2ncnn2cc1Nc1ncc2c(n1)n(C1CCOCC1)c(=O)n2C [AZD7648] + C=CCn1c(=O)c2cnc(Nc3ccc(N4CCN(C)CC4)cc3)nc2n1-c1cccc(C(C)(C)O)n1 [AZD1775] (first compound max 10 µM, partner max 1 µM)
2. Cc1cc2ncnn2cc1Nc1ncc2c(n1)n(C1CCOCC1)c(=O)n2C [AZD7648] + CN(C)CCCOc1ccc(-c2ccc3ncc4c(c3c2)n(C2CCOCC2)c(=O)n4C)cn1 [AZD0156] (first compound max 10 µM, 7x7, partner max 1 µM)
3. Cc1c2c(nn1C)CSCc1cc(n(C)n1)CSc1cc(c3ccccc3c1)OCCCc1c(C(=O)O)n(C)c3c-2c(Cl)ccc13 [AZD5991] + CCN(CCO)CCCOc1ccc2c(Nc3cc(CC(=O)Nc4cccc(F)c4)[nH]n3)ncnc2c1 [AZD2811] (first compound max 1 µM, 7x7, partner max 1 µM)

-- reply
1. 0.997
2. 0.634
3. 1

----------
System: NTERA-2-cl-D1 (Other Solid Carcinomas);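 further: after 72 h of two-drug dosing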
Test: Bliss excess, mean over the matrix (fraction); higher = more synergy
Answer each item with its documented Bliss excess.

Cn1cnc2c(F)c(Nc3ccc(Br)cc3Cl)c(C(=O)NOCCO)cc21 [Selumetinib] + C[C@@H]1COCCN1C2=NC(=NC(=C2)C3(CC3)[S@](=N)(=O)C)C4=C5C=CNC5=NC=C4 [AZD6738] (first compound max 10 µM, 7x7, partner max 10 µM) : -0.009

# per-item lookup of Bliss excess; items listed below
1. Cc1c2c(nn1C)CSCc1cc(n(C)n1)CSc1cc(c3ccccc3c1)OCCCc1c(C(=O)O)n(C)c3c-2c(Cl)ccc13 [AZD5991] + CN(C)CCCOc1ccc(-c2ccc3ncc4c(c3c2)n(C2CCOCC2)c(=O)n4C)cn1 [AZD0156] (first compound max 1 µM, 7x7, partner max 1 µM)
2. CC(=O)c1c(C)c2cnc(Nc3ccc(N4CCNCC4)cn3)nc2n(C2CCCC2)c1=O [Palbociclib] + Cc1c2c(nn1C)CSCc1cc(n(C)n1)CSc1cc(c3ccccc3c1)OCCCc1c(C(=O)O)n(C)c3c-2c(Cl)ccc13 [AZD5991] (first compound max 10 µM, 7x7, partner max 1 µM)
3. CC(=O)c1c(C)c2cnc(Nc3ccc(N4CCNCC4)cn3)nc2n(C2CCCC2)c1=O [Palbociclib] + Cn1cnc2c(F)c(Nc3ccc(Br)cc3Cl)c(C(=O)NOCCO)cc21 [Selumetinib] (first compound max 10 µM, 7x7, partner max 10 µM)

-- reply
1: -0.0123; 2: 0.019; 3: -0.007
